# experimental-system: T1, rat APJ receptor (rat, UniProt Q9JHG3 1-377)
# T1 sequence (looked up): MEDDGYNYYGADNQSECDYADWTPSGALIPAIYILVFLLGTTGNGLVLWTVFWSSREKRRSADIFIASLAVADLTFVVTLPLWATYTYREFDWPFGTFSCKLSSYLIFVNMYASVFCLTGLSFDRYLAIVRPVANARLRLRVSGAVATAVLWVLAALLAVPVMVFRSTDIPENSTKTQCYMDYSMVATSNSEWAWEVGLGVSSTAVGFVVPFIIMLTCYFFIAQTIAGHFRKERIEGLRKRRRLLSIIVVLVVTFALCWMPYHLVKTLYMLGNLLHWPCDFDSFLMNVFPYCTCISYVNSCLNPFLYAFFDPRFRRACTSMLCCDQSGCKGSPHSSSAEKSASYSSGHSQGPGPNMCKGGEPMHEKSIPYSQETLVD
# measurement-notes: cell-based or functional assay
Non-standard residues stand in square brackets, D forms with d. dBip = N[C@H](Cc1ccc(-c2ccccc2)cc1)C(=O)O; Oic = O=C(O)[C@@H]1C[C@@H]2CCCC[C@@H]2N1; Phe(4-I) = N[C@@H](Cc1ccc(I)cc1)C(=O)O; hArg = N=C(N)NCCCC[C@H](N)C(=O)O; NMeL = CN[C@@H](CC(C)C)C(=O)O
Label met when EC50 Rat APJ Receptor is strictly below 1 nM; otherwise label not met.

For orientation, consider the following solved cases.
{"columns": ["binder", "assigned-label"],
 "data": [
  ["QRPRLSHKGPXPF ({H2}[MerPr](10K mPEG acetamide)Q[hArg]P[NMeArg][aMeLeu]SHKGP[Nle]P[4-Cl-F]{COOH}) [SEQ ID NO: 112]", "not met"],
  ["Ac-E[dR]Q[hArg]P[dR][NMeL]SHKG[Oic][Phe(4-I)]P[dBip]-OH [SEQ ID NO: 75]", "not met"],
  ["XXXQRPRLSHKGPXPF ({Succinicacid}[AC4Abu][Aeea][Aeea]QRP[NMeArg]LSHKGP[Nle]P[4-Cl-F]{COOH}) [SEQ ID NO: 497]", "not met"],
  ["XXXQRPRLSHKGPXPF ({St}[AC4Abu][Aeea][Aeea]QRP[NMeArg]LSHKGP[Nle]P[4-Cl-F]{COOH}) [SEQ ID NO: 594]", "met"]
]}

Lab note: EC50 Rat APJ Receptor threshold 1 nM. Does this binder come in strictly under it? XXXQRPRLSHKGPXPF ({hexanoyl}[AC4Abu][Aeea][Aeea]QR[aMePro][hArg][aMeLeu]SHKGP[Nle]P[4-Cl-F]{COOH}) [SEQ ID NO: 560]
met
